Reported Tau aggregation remaining (ThT fluorescence, % of tau-only control) values for a set of compounds
- target-or-system: Tau protein (wild-type K18) (Homo sapiens)
- Construct: Tau protein (wild-type K18)
- Sequence (P10636 561-685 limits assumed): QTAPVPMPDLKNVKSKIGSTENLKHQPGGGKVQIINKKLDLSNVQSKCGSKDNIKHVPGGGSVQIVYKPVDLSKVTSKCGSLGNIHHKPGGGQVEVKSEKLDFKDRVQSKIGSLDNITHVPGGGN
- experiment-description: Tau protein aggregation inhibition test (thioflavin T assay)
- Format: biochemical
- run-parameters: 500 uM test compound; heparin/DTT-induced aggregation, 37° C. 5 days; ThT fluorescence vs tau-only control = 100%

[[record]]
compound = "CCN1C(=O)/C(=C/c2c[nH]c3cnccc23)SC1=S"
result = "62.51 % of control"

[[record]]
compound = "O=C1NC(=S)S/C1=C\\c1c[nH]c2ccncc12"
result = "74.24 % of control"

[[record]]
compound = "O=C1NC(=S)SC1Cc1cc[nH]c1 (centres unmarked)"
result = "29.14 % of control"

[[record]]
compound = "O=C1NC(=S)SC1Cc1c[nH]c2ccccc12 (centres unmarked)"
result = "39.019 % of control"

[[record]]
compound = "O=C1NC(=S)S/C1=C\\c1cc[nH]c1"
result = "16.233 % of control"

[[record]]
compound = "O=C1NC(=S)S/C1=C\\c1ccc2occc2c1"
result = "32.09 % of control"


What value of Tau aggregation remaining (ThT fluorescence, % of tau-only control) has been reported for the following compound? `O=C1NC(=O)/C(=C/c2c[nH]c3ccccc23)S1`
42.56 % of control

Field entry: O=C1NC(=S)SC1Cc1ccoc1 (centres unmarked)
56.13 % of control

Field entry: `O=C1NC(=O)/C(=C/c2ccoc2)S1`
59.86 % of control

Field entry: O=C1NC(=O)C(Cc2cc[nH]c2)S1 (centres unmarked)
57.26 % of control

====

Reported Tau aggregation remaining (ThT fluorescence, % of tau-only control) values for a set of molecules
- target-or-system: Tau protein (wild-type K18) (Homo sapiens)
- Construct: Tau protein (wild-type K18)
- experiment-description: Tau protein aggregation inhibition test (thioflavin T assay)
- Type: biochemical
- run-parameters: 50 uM test compound; heparin/DTT-induced aggregation, 37° C. 5 days; ThT fluorescence vs tau-only control = 100%

Record excerpt, results attached:
[[record]]
molecule = "O=C1NC(=S)S/C1=C\\c1ccsc1"
result = "60.521 % of control"

[[record]]
molecule = "O=C1NC(=O)C(Cc2cnc3ccccc3c2)S1 (stereo not shown)"
result = "85.91 % of control"

[[record]]
molecule = "O=C1NC(=S)S/C1=C\\c1ccc2occc2c1"
result = "36.72 % of control"


Now, please, on to the next molecule.
# query: Tau aggregation remaining (ThT fluorescence, % of tau-only control) | item `O=C1NC(=S)S/C1=C\c1c[nH]c2ccncc12` | system: Tau protein (wild-type K18) (Homo sapiens)
93.56 % of control

====

Reported Beta-amyloid aggregate degradation activity (% of control) values for a set of compounds
- target-or-system: aggregated beta-amyloid; human Aβ 1-42 (UniProtKB-P05067, a.a. 672-713) (Homo sapiens, UniProt P05067)
- Construct: UniProtKB-P05067, a.a; 672-713
- Sequence (P05067 672-713): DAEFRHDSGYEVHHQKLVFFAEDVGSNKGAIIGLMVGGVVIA
- experiment-description: Beta-amyloid aggregate degradation test (thioflavin T assay)
- Format: biochemical
- run-parameters: 500 uM test compound; pre-aggregated Aβ, further 3 days at 37° C.; ThT fluorescence vs control = 100%

Record excerpt, results attached:
[[record]]
compound = "CN1C(=O)N/C(=C\\c2c[nH]c3cccnc23)C1=O"
result = "30.52 % of control"

[[record]]
compound = "O=C1NC(=O)C(Cc2cnc3ccccc3c2)S1 (centres unmarked)"
result = "74.80 % of control"

[[record]]
compound = "CCN1C(=O)C(Cc2ccc3occc3c2)NC1=S (centres unmarked)"
result = "90.19 % of control"

[[record]]
compound = "O=C1NC(=S)SC1Cc1cc[nH]c1 (centres unmarked)"
result = "33.65 % of control"

[[record]]
compound = "O=C1NC(=S)S/C1=C\\c1c[nH]c2ccncc12"
result = "53.56 % of control"

[[record]]
compound = "CCN1C(=O)/C(=C/c2c[nH]c3cccnc23)SC1=S"
result = "55.35 % of control"

[[record]]
compound = "O=C1NC(=S)S/C1=C\\c1csc2ccccc12"
result = "35.83 % of control"

[[record]]
compound = "CCN1C(=O)/C(=C/c2c[nH]c3cccnc23)NC1=S"
result = "78.39 % of control"


What value of Beta-amyloid aggregate degradation activity (% of control) has been reported for the following compound? `O=C1NC(=O)/C(=C/c2c[nH]c3ncccc23)S1`
94.23 % of control

Field entry: `O=C1NC(=S)S/C1=C\c1ccsc1`
80.07 % of control

Field entry: `O=C1NC(=S)S/C1=C\c1c[nH]c2ccccc12`
17.28 % of control

Field entry: `CCN1C(=O)/C(=C/c2c[nH]c3ccccc23)NC1=S`
28.97 % of control

Field entry: `O=C1NC(=O)/C(=C/c2c[nH]c3cccnc23)S1`
54.07 % of control

Field entry: `CCN1C(=O)/C(=C/c2c[nH]c3ncccc23)NC1=S`
92.41 % of control
